Provenance of the data: paper PMC11109247

Target: T1, sF ectodomain (Nipah henipavirus), Q9IH63
T1 chain: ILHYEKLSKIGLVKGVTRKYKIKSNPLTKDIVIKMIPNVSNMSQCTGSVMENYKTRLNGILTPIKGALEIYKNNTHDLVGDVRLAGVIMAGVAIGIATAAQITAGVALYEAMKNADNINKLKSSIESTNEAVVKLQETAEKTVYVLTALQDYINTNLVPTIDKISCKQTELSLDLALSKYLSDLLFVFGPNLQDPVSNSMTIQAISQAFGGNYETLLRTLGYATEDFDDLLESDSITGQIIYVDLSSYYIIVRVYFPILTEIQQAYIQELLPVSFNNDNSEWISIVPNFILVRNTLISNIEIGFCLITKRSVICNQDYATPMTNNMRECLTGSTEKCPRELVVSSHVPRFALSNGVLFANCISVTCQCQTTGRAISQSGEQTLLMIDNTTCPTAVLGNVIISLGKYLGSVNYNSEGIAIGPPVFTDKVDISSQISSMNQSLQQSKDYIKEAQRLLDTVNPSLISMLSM
Assay: MST
Conditions: modification not given
property.label: Kd (µM)
A number alone suffices; assume µM.

Dear colleague, I am looking for the recorded Kd of the following binder: HECNISCPNPLPFREYRPQTEGV [P-59 peptide peptide P-59, Q9IH62]
5
